Data credit: PubChem BioAssay (NCATS)

assayProcedure: Quantitative High-Throughput drug screen in 47 multiple myeloma cell lines against the NCATS MIPE library collection: L363_DSMZ cell viability assay (AID 1918984); also: nearly all actives have a fitted effect of over 40% in size
runParameters: L363 myeloma viability, CellTiter-Glo ATP luminescence, 48 h; series mostly up to 45.8 µM
Records with an inconclusive call do not appear. Calls of active or inactive are those of the source. Calls follow the shape of the dose curve; as a rule, active = well fitted cell-killing curve with a large enough effect; inconclusive = small, poorly fitted or top-dose-only effect, or effect the other way; inactive = no such curve, though single readings can be large or run the other way.
Log the outcome using a class from yes = active, no = inactive

compound	labelValue
Cc1cnn(C)c1C(=O)Nc1cc(Nc2ccc3c(C=Cc4ccccn4)n[nH]c3c2)ccc1F	yes

Task: Test call, this compound: NC(=NCCCCCCN=C(N)N=C(N)Nc1ccc(Cl)cc1)N=C(N)Nc1ccc(Cl)cc1
Output: yes

Task: Record: CC[C@H]1OC(=O)[C@H](C)[C@@H](O[C@H]2C[C@@](C)(OC)[C@@H](O)[C@H](C)O2)[C@H](C)[C@@H](O[C@@H]2O[C@@H](C)C[C@H](N(C)C)[C@@H]2O)[C@](C)(O)C[C@@H](C)C(=O)[C@H](C)[C@@H](O)[C@]1(C)O
Output: no

Task: Record: CCS(=O)(=O)Nc1ccc2[nH]c(O)c(C(=Nc3ccc(CN4CCCCC4)cc3)c3ccccc3)c2c1
Output: yes

Task: Record: C=CCNC1=C2C[C@@H](C)C[C@H](OC)[C@@H](O)[C@@H](C)C=C(C)[C@H](OC(N)=O)[C@@H](OC)C=CC=C(C)C(=O)NC(=CC1=O)C2=O
Output: yes

Task: Record: CCOc1cc2ncc(C#N)c(Nc3ccc(OCc4ccccn4)c(Cl)c3)c2cc1NC(=O)C=CCN(C)C
Output: yes

Task: Record: Nc1ccc(C(=O)Nc2cccc(-c3nc(N4CCOCC4)c4oc5ncccc5c4n3)c2)cn1
Output: yes
